Bromodomain-containing protein 4 (Homo sapiens, UniProt O60885): recorded ΔTm for assorted molecules
Hi! Could you send only the number? It should be in °C, unit omitted.

Please review the following examples before continuing.
molecule	assayedSystem	ΔTm [°C]
Cc1noc(C)c1-c1ccc2c(c1)OC(C(C)C)C(=O)N2 (stereo not given)	Bromodomain-containing protein 4 (Homo sapiens, UniProt O60885)	6.9
Cc1noc(C)c1-c1ccc2c(c1)O[C@H](CC1CC1)C(=O)N2CC(=O)N(C)C	Bromodomain-containing protein 4 (Homo sapiens, UniProt O60885)	6.9
Cc1noc(C)c1-c1ccc2c(c1)O[C@H](CC1CC1)C(=O)N2	Bromodomain-containing protein 4 (Homo sapiens, UniProt O60885)	10.5
COC(=O)CN1C(=O)[C@@H](CC2CC2)Oc2cc(-c3c(C)noc3C)ccc21	Bromodomain-containing protein 4 (Homo sapiens, UniProt O60885)	8.9

Consider now this further molecule.
**Query** # return ΔTm of Cc1noc(C)c1-c1ccc2c(c1)O[C@H](CC(C)C)C(=O)N2 (system: Bromodomain-containing protein 4 (Homo sapiens, UniProt O60885))
**Result** 11.7
